Molecular target: human ether-à-go-go-related gene (hERG) potassium channel (human);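 note: peak tail current of the secondary pulse compared with the same well before compound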
Sequence (Q12809 whole entry, looked up): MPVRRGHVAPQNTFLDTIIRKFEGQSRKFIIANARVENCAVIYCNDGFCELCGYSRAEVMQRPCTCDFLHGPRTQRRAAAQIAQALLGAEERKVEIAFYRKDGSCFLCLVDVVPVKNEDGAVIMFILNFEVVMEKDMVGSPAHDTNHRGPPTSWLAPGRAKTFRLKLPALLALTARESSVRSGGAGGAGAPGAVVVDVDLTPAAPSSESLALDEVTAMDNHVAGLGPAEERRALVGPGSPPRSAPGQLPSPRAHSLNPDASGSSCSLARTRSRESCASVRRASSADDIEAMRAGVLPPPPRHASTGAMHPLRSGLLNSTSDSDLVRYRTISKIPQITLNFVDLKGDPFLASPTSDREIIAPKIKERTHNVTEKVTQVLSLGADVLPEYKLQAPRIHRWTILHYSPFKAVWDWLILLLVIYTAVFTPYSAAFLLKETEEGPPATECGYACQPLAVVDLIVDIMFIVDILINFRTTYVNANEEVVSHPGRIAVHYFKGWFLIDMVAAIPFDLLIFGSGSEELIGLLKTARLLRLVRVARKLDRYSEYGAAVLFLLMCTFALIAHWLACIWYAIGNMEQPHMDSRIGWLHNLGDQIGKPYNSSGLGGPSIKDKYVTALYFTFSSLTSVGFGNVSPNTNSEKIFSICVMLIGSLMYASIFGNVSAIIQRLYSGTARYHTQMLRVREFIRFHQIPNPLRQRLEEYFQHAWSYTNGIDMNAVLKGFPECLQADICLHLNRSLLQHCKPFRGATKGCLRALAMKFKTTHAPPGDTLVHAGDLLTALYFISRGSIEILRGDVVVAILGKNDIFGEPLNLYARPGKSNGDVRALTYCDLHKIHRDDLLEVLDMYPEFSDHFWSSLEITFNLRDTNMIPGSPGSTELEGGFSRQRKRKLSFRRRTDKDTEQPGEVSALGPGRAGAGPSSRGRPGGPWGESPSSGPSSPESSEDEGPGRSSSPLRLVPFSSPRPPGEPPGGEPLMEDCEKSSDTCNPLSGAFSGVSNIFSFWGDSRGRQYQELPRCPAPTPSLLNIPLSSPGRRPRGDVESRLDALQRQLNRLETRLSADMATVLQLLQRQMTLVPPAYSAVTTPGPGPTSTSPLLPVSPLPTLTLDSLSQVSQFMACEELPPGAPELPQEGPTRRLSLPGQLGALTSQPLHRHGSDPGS
Assay: primary screen, population patch clamp on CHO cells stably expressing hERG; higher = less effect of the substance
The campaign covered roughly 310,000 compounds. About 14,000 (4.5%) showed an effect of 50% or more. The effect is printed as a negative number. This is one part of a sample in which strong results are shown more often than they occur.
readout.type: hERG current change (%, negative = inhibition) at 10uM (%)
# number only, unit % dropped from output

Here is how some compounds turned out for hERG current change (%, negative = inhibition) at 10uM.
compound: CN(C)CCNc1oc(/C=C/c2ccccc2)nc1C#N
experimental.result: -29.2
//
compound: CCn1c(CCC(=O)N(C)CC(=O)Nc2cccc(F)c2)nc2cc(S(=O)(=O)N(C)C)ccc21
experimental.result: -19.3
//
compound: COc1ccc2ccc(OCC(=O)N3c4ccccc4NC(=O)CC3C)cc2c1 (stereo not shown)
experimental.result: -21.2
//
compound: COc1ccc(S(=O)(=O)N2CCOCC2)cc1NC(=O)COC(=O)C1CCC1
experimental.result: -6.23

Ask: Find the recorded hERG current change (%, negative = inhibition) at 10uM belonging to COc1ccc(OC)c(N(CC(=O)Nc2cccnc2)S(=O)(=O)c2ccc(OC)c(OC)c2)c1 and report it.
Reply: -17.9

Ask: Find the recorded hERG current change (%, negative = inhibition) at 10uM belonging to CCOC(=O)C1CCN(C(=O)c2cc(S(=O)(=O)N3CCCCCC3)ccc2OC)CC1 and report it.
Reply: -50.8
